# target.desc: HLA-A*02:11
# assay.method.text: IEDB peptide-MHC binding, purified MHC/direct/fluorescence; filed as Kd, often an IC50 or EC50 that approximates it; bounds were set here for any values at or beyond the usual limits of such assays
# assay.setup: source organism: Cryptosporidium parvum Iowa II
measure: Kd

chain_sequence=MPMSMPIPM measured_value="≥ 20 µM"

Turning now to a further sequence:
Input line: Find the measured Kd of LPLESCFGV with HLA-A*02:11 as test system.
Output line: ≥ 20 µM

====

# target.desc: HLA-A*02:11
# assay.method.text: IEDB peptide-MHC binding, purified MHC/direct/fluorescence; filed as Kd, often an IC50 or EC50 that approximates it; bounds were set here for any values at or beyond the usual limits of such assays
# assay.setup: source organism: Vibrio parahaemolyticus AQ3810
pKd: −log10 of the molar value.
measure: pKd

Input line: Provide pKd value for the following sequence: EASTWLDIF
Output line: ≤ 4.70
